- Procedure details: melting temperature; fluorescence melt of hairpins on a sequencing array, two-state fit, raised by 9.35 °C to match UV melts
- Measurement context: sodium 0.088 M
# Tm values compiled below
Numeric only. Scale: °C

INSERT INTO assay_data (sequence_string, value_measured) VALUES
  ('GGCCATGGAAACATGACC ((.((((....)))).))', 47.6),
  ('GTAGACGAAAGTCAGTAC ((((((....)))..)))', 28.6),
  ('GGATTAGGAAACTAGTCC (((.(((....))).)))', 37.2),
  ('GTCTACGAAAGTATAGAC ((((((....)))..)))', 36.2),
  ('GCTGCGCGAAAGCCGAGC (((..((....))..)))', 45);

Qu. Can you share its Tm? I mean this sequence: GCGACCGAAAGGTTACGC ((((((....)))..)))
Ans. 50

Qu. Please do the same for GATGGGGCGAAAGCCATC (((..(((....)))))) as well.
Ans. 38.1

Qu. Please do the same for GATCGGGCCCCGATC ((((((...)))))) as well.
Ans. 57.5

Qu. Please do the same for GCTGTCCGAAAGGAAAGC (((.(((....))).))) as well.
Ans. 53.7

Qu. Please do the same for GATCCCTACAGGGATC ((((((....)))))) as well.
Ans. 65.6

Qu. Please do the same for GGGAATGGAAACATTTCC ((.((((....)))).)) as well.
Ans. 45.1

Qu. Please do the same for GATCTACGCCTAGATC ((((((....)))))) as well.
Ans. 42.6

Qu. Please do the same for GATCCAGACTGGATC ((((((...)))))) as well.
Ans. 52

Qu. Please do the same for GCGCTCCGAAAGGACCGC (((.(((....))).))) as well.
Ans. 53

Qu. Please do the same for GATCTCCTAAGAGATC ((((((....)))))) as well.
Ans. 53.6

Qu. Please do the same for GATCACGGGTGTGATC ((((((....)))))) as well.
Ans. 58.8

Qu. Please do the same for CGCCCGGAAACGGACGCG ((((((....)))..))) as well.
Ans. 50.2

Qu. Please do the same for GATCAAACGCTTGATC ((((((....)))))) as well.
Ans. 41.5

Qu. Please do the same for GCGTATGCGAAAGCACGC (((..(((....)))))) as well.
Ans. 53.1

Qu. Please do the same for GTAGCGGAAACGCTAC ((((((....)))))) as well.
Ans. 65.3

Qu. Please do the same for GCTCTGCGAAAGCACGGC ((..(((....)))..)) as well.
Ans. 39.7

----------
- Procedure details: melting temperature; fluorescence melt of hairpins on a sequencing array, two-state fit, raised by 9.35 °C to match UV melts
- Measurement context: sodium 0.088 M
# Tm values compiled below
Numeric only. Scale: °C

Solved cases below.
INSERT INTO assay_data (sequence_string, unit_descriptor, value_measured) VALUES
  ('GCCAGCCCGAAAGGGGGC (((..(((....))))))', '°C', 55.3),
  ('GATGGCGAAAGCCGAATC ((((((....)))..)))', '°C', 34.4),
  ('GCGCCGCGAAAGCGAGGC ((..(((....)))..))', '°C', 54.8),
  ('GTATCACGAAAGTGGTAC (((.(((....))).)))', '°C', 52.8),
  ('GAGAGAGAAATCTCTC ((((((....))))))', '°C', 45.8);

Qu. Can you share its Tm? I mean this sequence: GCTAGCCGAAAGGCAAGC (((.(((....))).)))
Ans. 60

Qu. Please do the same for GCGCTCACGAAAGTGCGC (((..(((....)))))) as well.
Ans. 60

Qu. Please do the same for CTAAGGAAACTTAG (((((....))))) as well.
Ans. 29.8

Qu. Please do the same for GGAGCCCCGAAAGGGTCC (((..(((....)))))) as well.
Ans. 47.4

Qu. Please do the same for GCCCCCGGAAACGGGAGC ((.((((....)))).)) as well.
Ans. 54.2

Qu. Please do the same for GATCTCAAGGGAGATC ((((((....)))))) as well.
Ans. 50.8

Qu. Please do the same for GATCTTACTTAAGATC ((((((....)))))) as well.
Ans. 44.1

----------
- Procedure details: melting temperature; fluorescence melt of hairpins on a sequencing array, two-state fit, raised by 9.35 °C to match UV melts
- Measurement context: sodium 0.088 M
Classes are defined on Tm with ranges lower band = under 40 °C, central band = from 40 °C up to 50 °C, upper band = 50 °C and over

Completed entries (count: 4):
INSERT INTO measurements (sequence_string, class_label) VALUES
  ('GATCCTGTGAAGGATC ((((((....))))))', 'upper band'),
  ('CATATGAAAATATG (((((....)))))', 'lower band'),
  ('GGGCCTGGAAACGGGCCC (((((.(....).)))))', 'upper band'),
  ('GTATAAGGAAACTTGTAC (((.(((....))).)))', 'lower band');

Qu. // bin(item) where item = GCACACGGAAACGCGTGC ((((.((....)).))))
Ans. upper band

Qu. Please do the same for GTGCGGCGAAAGCCTCAC (((.(((....))).))) as well.
Ans. upper band

Qu. Please do the same for GCCGGGCGAAAGCACAGC ((.(.((....)).).)) as well.
Ans. upper band

Qu. Please do the same for GTCTAGGGAAACCTAGAC (((((((....))))))) as well.
Ans. upper band

Qu. Please do the same for GTGCTACGAAAGTATCAC (((.(((....))).))) as well.
Ans. central band

----------
# folding enthalpy values compiled below
- Procedure details: folding enthalpy; higher = less favourable; fluorescence melt of hairpins on a sequencing array, two-state fit
- Measurement context: sodium 0.088 M
Numeric only. Scale: kcal/mol

Qu. Can you share its folding enthalpy? I mean this sequence: GATCTCGGAAACGGGATC ((((.((....)).))))
Ans. -35

----------
- Procedure details: folding enthalpy; higher = less favourable; fluorescence melt of hairpins on a sequencing array, two-state fit
- Measurement context: sodium 0.088 M
Measured quantity: folding enthalpy (kcal/mol)
Numeric only. Scale: kcal/mol

INSERT INTO measurements (sequence_string, value_measured) VALUES
  ('GCGTAGCGAAAGCGATGC ((.(.((....)).).))', -13.9),
  ('GATCTACGCTTAGATC ((((((....))))))', -35.4),
  ('GATCTGCATACAGATC ((((((....))))))', -43.2),
  ('GCTATAGCGAAAGCTAGC (((..(((....))))))', -18),
  ('GCTAGCGAAAGCTCGAGC ((((((....)))..)))', -14.6),
  ('GACACGACGAAAGTCGTC (((..(((....))))))', -6.1),
  ('GCGTGGGGAAACCCATGC ((.((((....)))).))', -42.3),
  ('GTGGTCCGAAAGGAACAC (((.(((....))).)))', -33.6);

Qu. Can you share its folding enthalpy? I mean this sequence: GATCTCTAGGGAGATC ((((((....))))))
Ans. -39.7

Qu. Please do the same for GCGTTGCGAAAGCCAAGC ((.(.((....)).).)) as well.
Ans. -21.3

Qu. Please do the same for GCCCAGCGAAAGCTCGGC (((.(((....))).))) as well.
Ans. -40.4

Qu. Please do the same for GATCCGCAACCGGATC ((((((....)))))) as well.
Ans. -39.3

----------
- Procedure details: melting temperature; fluorescence melt of hairpins on a sequencing array, two-state fit, raised by 9.35 °C to match UV melts
- Measurement context: sodium 0.088 M
Cut-off 50 °C on Tm: below means T, at or above means F.

Completed entries (count: 3):
INSERT INTO assay_data (sequence_string, class_label) VALUES
  ('GATCCGCCTCCGGATC ((((((....))))))', 'F'),
  ('GCCGAGCGAAAGCGCTGC ((.(.((....)).).))', 'T'),
  ('GTCTATGGAAACGTAGAC (((((.(....).)))))', 'T');

Qu. # TODO verify Tm < 50 °C strictly for this sequence: CGACAACGGAAACGTTCG (((..(((....))))))
Ans. T

Qu. Please do the same for GTCCGACGAAAGTCGAC (((.(((....)))))) as well.
Ans. T

Qu. Please do the same for GTGTAGCGAAAGCTCCAC (((.(((....))).))) as well.
Ans. T

Qu. Please do the same for GTTGGCGAAAGCCTCAAC ((((((....)))..))) as well.
Ans. T

Qu. Please do the same for GTGAACCGAAAGGTACAC (((.(((....))).))) as well.
Ans. F
